Assay: Human liver microsome stability assay
Type: in vitro ADME
Conditions: both sexes, human, microsomes, pH 7.4
Observed Property: half-life at 0.5 μM (min)
Please respond with the number in min and leave the unit unwritten.

Quote half-life at 0.5 μM reported for Cn1cc(-c2ccccc2C(O)c2ccc(Cl)cc2)c2cc[nH]c2c1=O (stereo not shown) please. 19

Quote half-life at 0.5 μM reported for Cn1cc(-c2cc(S(C)(=O)=O)ccc2OCC2C[C@@H]3CC[C@H]2C3)c2cc[nH]c2c1=O (stereo partly shown) please. 6

Quote half-life at 0.5 μM reported for Cc1cc(OCC2CC2)c(-c2cn(C)c(=O)c3[nH]ccc23)cc1NS(C)(=O)=O please. 70

Quote half-life at 0.5 μM reported for CCOC(=O)N1CCC(Oc2ccc(S(C)(=O)=O)cc2-c2cn(C)c(=O)c3[nH]ccc23)CC1 please. 42
